- TEST PROTOCOL: Cytotoxicity against human THP1-Dual KO-STING cells assessed as cell viability incubated for 24 hrs by CellTiter 96 aqueous one solution assay relative to control
- Assay type: toxicity, cell-based
- Design: concentration or dose not given beside the values
- MEASUREMENT PARAMETERS: read-out: Activity
In this section, each of the molecules is paired with its reported viability at 24 h.
QUANTITY MEASURED: viability at 24 h

>>> print(df.to_string())
                            chemical_string  readout_value
0  Cc1ncccc1C(=O)Nc1nc2cc(C(N)=O)ccc2n1CCCCCNC(=O)OC(C)(C)C            92%
1  Cc1cncc(C(=O)Nc2nc3cc(C(N)=O)ccc3n2CCCCNC(=O)OC(C)(C)C)c1          97.4%
2  Cc1ccncc1C(=O)Nc1nc2cc(C(N)=O)ccc2n1CCCCNC(=O)OC(C)(C)C          87.8%
3  CCn1nc(C)cc1C(=O)Nc1nc2cc(C(N)=O)ccc2n1CCCCn1c(NC(=O)c2cc(C)nn2CC)nc2cc(C(N)=O)ccc21           117%

====

- TEST PROTOCOL: Volume of distribution at steady state in ICR mouse at 5 mg/kg, iv by LC-MS/MS analysis
- Format: ADME, organism-based
- MEASUREMENT PARAMETERS: in vivo, read-out: Vdss
QUANTITY MEASURED: Vd (L/kg)

>>> print(df.to_string())
                            chemical_string  unit_abbreviation  readout_value
0  Cc1ncccc1C(=O)Nc1nc2cc(C(N)=O)ccc2n1CCCCNC(=O)OC(C)(C)C               L/kg           11.7

====

- TEST PROTOCOL: Cytotoxicity against human THP1-Dual KO-STING cells assessed as cell viability incubated for 24 hrs by CellTiter 96 aqueous one solution assay relative to control
- Type: toxicity, cell-based
- Parameters: concentration or dose not given beside the values
- MEASUREMENT PARAMETERS: read-out: Activity
We begin with a simple list: items and their reported viability at 24 h.
QUANTITY MEASURED: viability at 24 h (%)

>>> df
                            chemical_string  quantity_measured  readout_value
0  Cc1ncccc1C(=O)Nc1nc2cc(C(N)=O)ccc2n1CCCNC(=O)OC(C)(C)C  viability at 24 h           93.6
1  Cc1ncccc1C(=O)Nc1nc2cc(C(N)=O)ccc2n1CCCCn1c(NC(=O)c2cccnc2C)nc2cc(C(N)=O)ccc21  viability at 24 h            118
2  CC(C)(C)OC(=O)NCCCCn1c(NC(=O)c2cccnc2F)nc2cc(C(N)=O)ccc21  viability at 24 h            108
3  CCn1nc(C)cc1C(=O)Nc1nc2cc(C(N)=O)ccc2n1CCCCNC(=O)OC(C)(C)C  viability at 24 h            105
4  CC(C)(C)OC(=O)NCCCCn1c(NC(=O)c2cccnc2)nc2cc(C(N)=O)ccc21  viability at 24 h           93.3
5  Cc1nc(C(F)(F)F)ccc1C(=O)Nc1nc2cc(C(N)=O)ccc2n1CCCCNC(=O)OC(C)(C)C  viability at 24 h           97.5
6  CC(=O)NCCCCn1c(NC(=O)c2cccnc2C)nc2cc(C(N)=O)ccc21  viability at 24 h           97.4
7  CC(C)(C)OC(=O)NCCCCn1c(NC(=O)c2ccc(F)nc2)nc2cc(C(N)=O)ccc21  viability at 24 h            107
8  Cc1ccc(C(=O)Nc2nc3cc(C(N)=O)ccc3n2CCCCNC(=O)OC(C)(C)C)cn1  viability at 24 h           95.3
